Record form. Attribute: Ratio Ki. Fill in for each entry.
experimental-protocol: Selectivity ratio of Ki for sigma 2 receptor in rat liver membranes to Ki for sigma 1 receptor in guinea pig brain membranes
Type: cell membranes
protocol-conditions: Membrane

Given the molecule `O=C1OC2(CCN(Cc3ccccc3)CC2)c2csc(-c3ccc(-c4ccccc4)cc3)c21` , what is its reported Ratio Ki? > 1

Given the molecule `O=C1Cc2cc(-c3ccccc3)sc2C2(CCN(Cc3ccccc3)CC2)O1` , what is its reported Ratio Ki? > 43

Given the molecule `O=C1OC2(CCN(Cc3ccccc3)CC2)c2c1csc2-c1ccccc1` , what is its reported Ratio Ki? > 2

Given the molecule `O=C1OC2(CCN(Cc3ccccc3)CC2)c2c(-c3cccc4ccccc34)sc(-c3cccc4ccccc34)c21` , what is its reported Ratio Ki? > 1

Given the molecule `O=C1OC2(CCN(Cc3ccccc3)CC2)c2cscc21` , what is its reported Ratio Ki? > 60

Given the molecule `COc1ccc(-c2sc(-c3ccc(OC)cc3)c3c2C(=O)OC32CCN(Cc3ccccc3)CC2)cc1` , what is its reported Ratio Ki? > 6

Each recorded value in this set is attributed to ChEMBL document CHEMBL2346601.
